Test system: Stellaria media
Assay: Post-emergence herbicidal action against harmful plants
Assay type: in vivo
Details: 504 h, dosage 80 g/ha, visual rating after about 3 weeks (Table D), read-out: Herbicidal action against STEME
The entries below come with measured pest or weed control at 80 g/ha values attached.

{"columns": ["molecule", "pest or weed control at 80 g/ha (%)"],
 "data": [
  ["CCN(CC)C(=O)COc1c(S(=O)(=O)CC)ccc(C(=O)C2=C(O)CCCC2=O)c1C(F)(F)F", 100],
  ["CCS(=O)(=O)c1ccc(C(=O)C2=C(O)CCCC2=O)c(C(F)(F)F)c1OCC(=O)N(C)C", 90],
  ["CN(C)C(=O)COc1c(Cl)ccc(C(=O)C2=C(O)CCCC2=O)c1Cl [Compound S1, reference compound]", 70],
  ["CCN(CC)C(=O)COc1c(S(C)(=O)=O)ccc(C(=O)C2=C(O)CCCC2=O)c1Cl [Compound S2, reference compound]", 90],
  ["CCN(CC)C(=O)COc1c(S(=O)(=O)CC)ccc(C(=O)C2=C(O)CCCC2=O)c1Cl [Compound S3, reference compound]", 90],
  ["CCN(C)C(=O)COc1c(S(C)(=O)=O)ccc(C(=O)C2=C(O)CCCC2=O)c1C(F)(F)F", 100],
  ["CCN(CC)C(=O)COc1c(S(C)(=O)=O)ccc(C(=O)C2=C(O)CCCC2=O)c1C(F)(F)F [Compound E2]", 100]
]}
